# method: Apparent volume of distribution in CD1 mouse at 2 mg/ kg, iv
# Format: ADME, organism-based
# Parameters: dose 2 mg/ kg, route intravenous
# test-settings: in vivo, read-out: Vz

>  <chemical-smiles>
COc1ccc2c(c1)/C(=N\OCCN1CCCC1)c1c-2c(O)nc2ccccc12

>  <Vd, L/kg>
25.5

$$$$

---

# method: AUC (0 to infinity) in CD1 mouse at 2 mg/ kg, iv
# Format: ADME, organism-based
# Design: time infinity, dose 2 mg/ kg, route intravenous
# test-settings: plasma
property-label: AUC(0-inf) (ng·h/mL)

>  <chemical-smiles>
COc1ccc2c(c1)/C(=N\OCCN1CCCC1)c1c-2c(O)nc2ccccc12

>  <property-label>
AUC(0-inf)

>  <endpoint-result>
172

$$$$
